molecular target: human tissue factor (TF), membrane-bound on cells (human, UniProt P13726 33-295); assay: cell-based or functional assay
Lab note: cut-off is 0.2 nM. Strictly less in EC50 of ADCC, MDA-MB-231 cells is y. Exactly 0.2 nM or more is n.

binder | category
anti-TF HuMab 098 (antibody, V domains shown, Human monoclonal antibody from HuMab mice; also called HuMab-TF-098; HuMab-TF-98) VH: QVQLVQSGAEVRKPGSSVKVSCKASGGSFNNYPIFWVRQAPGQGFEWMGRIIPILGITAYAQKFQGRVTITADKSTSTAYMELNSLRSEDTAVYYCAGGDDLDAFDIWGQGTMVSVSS VL: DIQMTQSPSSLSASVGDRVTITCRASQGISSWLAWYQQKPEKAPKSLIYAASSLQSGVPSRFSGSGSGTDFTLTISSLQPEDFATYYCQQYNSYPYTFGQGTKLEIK | y
anti-TF HuMab 003 (antibody, V domains shown, Human monoclonal antibody from HuMab mice; also called HuMab-TF-003) VH: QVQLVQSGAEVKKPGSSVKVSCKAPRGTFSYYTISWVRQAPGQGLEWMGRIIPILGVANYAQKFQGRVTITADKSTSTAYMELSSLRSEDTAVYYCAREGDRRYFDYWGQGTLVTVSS VL: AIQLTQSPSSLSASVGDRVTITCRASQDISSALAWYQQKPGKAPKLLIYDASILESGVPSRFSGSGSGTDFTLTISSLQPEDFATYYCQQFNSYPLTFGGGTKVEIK | n
anti-TF HuMab 025 (antibody, V domains shown, Human monoclonal antibody from HuMab mice) VH: QVQLVESGGGVVQPGRSLRLSCAASGFTFSRYAMHWVRQAPGKGLEWVAVISNDGYNDYYADSVKGRFTVSRDNSKNTLYLQMNSLRAEDTAVYYCARDGQLGRGYFDYWGQGTLVTVSS VL: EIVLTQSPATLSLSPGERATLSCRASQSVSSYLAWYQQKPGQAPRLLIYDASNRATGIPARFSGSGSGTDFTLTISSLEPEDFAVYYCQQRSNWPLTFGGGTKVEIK | n
anti-TF HuMab 111 (antibody, V domains shown, Human monoclonal antibody from HuMab mice) VH: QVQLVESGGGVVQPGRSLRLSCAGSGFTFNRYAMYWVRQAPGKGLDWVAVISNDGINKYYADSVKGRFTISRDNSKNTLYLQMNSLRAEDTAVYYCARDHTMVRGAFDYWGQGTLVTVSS VL: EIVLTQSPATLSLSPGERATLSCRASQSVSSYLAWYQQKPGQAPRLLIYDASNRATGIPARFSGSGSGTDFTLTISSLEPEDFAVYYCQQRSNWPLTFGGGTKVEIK | n

Field: next binder
Just wondering, is EC50 of ADCC, MDA-MB-231 cells of anti-TF HuMab 109 (antibody, V domains shown, Human monoclonal antibody from HuMab mice) VH: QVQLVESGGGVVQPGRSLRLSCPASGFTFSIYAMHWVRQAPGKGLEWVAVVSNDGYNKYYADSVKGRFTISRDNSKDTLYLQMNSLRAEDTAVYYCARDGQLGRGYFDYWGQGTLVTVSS VL: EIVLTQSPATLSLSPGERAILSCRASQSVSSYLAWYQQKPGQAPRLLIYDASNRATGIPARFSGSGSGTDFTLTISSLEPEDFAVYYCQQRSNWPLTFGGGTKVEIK below 0.2 nM?
y
